assayed-target: T1, human CD81 mutant A164T (human, UniProt P60033 1-236, limits assumed)
T1 construct: as m30; not shown: C-terminal V5 and 6xHis tags
T1 sequence: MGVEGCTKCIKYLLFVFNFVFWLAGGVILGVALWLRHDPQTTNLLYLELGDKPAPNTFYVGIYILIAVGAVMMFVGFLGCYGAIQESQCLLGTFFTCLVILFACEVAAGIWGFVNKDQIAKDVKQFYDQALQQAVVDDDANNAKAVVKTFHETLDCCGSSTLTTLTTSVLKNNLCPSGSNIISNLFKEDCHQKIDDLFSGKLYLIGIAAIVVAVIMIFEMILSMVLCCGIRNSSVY
assay-details: ELISA
Each entry below carries its recorded relative binding affinity.

Look over these answered cases.
{"binder": "002-A07 S115N (antibody, human IgG4 S228P, lambda, V domains shown, IgG4 S228P; glycosylation site mutant of 002-A07 VL) VH: EVQLLESGGGLVQPGGSLRLSCAASGFTFSSNYMSWVRQAPGKGLEWVSYISSSSTYTDYADSVKGRFTISRDNSKNTLYLQMNSLRAEDTAVYYCARYSYGRDNFDYWGQGTLVTVSS VL: QSVLTQPPSASGTPGQRVTISCTGSTSNIGAGYDTHWYQQLPGTAPKLLIYGNSNRPSGVPDRFSGSKSGTSASLAISGLRSEDEADYYCQSYDTNLNVWVFGGGTKLTVLG", "observed-property": "relative binding affinity", "result": "< 20%"}
{"binder": "002-B05 (antibody, human IgG4 S228P, lambda, V domains shown, IgG4 S228P) VH: EVQLLESGGGLVQPGGSLRLSCAASGFTFSSNYMSWVRQAPGKGLEWVSYISSSSTYTDYADSVKGRFTISRDNSKNTLYLQMNSLRAEDTAVYYCARYSYSRDNFDYWGQGTLVTVSS VL: QSVLTQPPSASGTPGQRVTISCTGSTSNIGAGYGTHWYQRLPGTAPKLLIYGNSNRPSGVPDRFSGSKSGTSASLAISGLRSEDEADYYCQSYDTNLSVWVFGGGTKLTVLG", "observed-property": "relative binding affinity", "result": "< 20%"}

Lab note: next binder to report on.
The recorded relative binding affinity for entry 002-A07 N113Q (antibody, human IgG4 S228P, lambda, V domains shown, IgG4 S228P; glycosylation site mutant of 002-A07 VL) VH: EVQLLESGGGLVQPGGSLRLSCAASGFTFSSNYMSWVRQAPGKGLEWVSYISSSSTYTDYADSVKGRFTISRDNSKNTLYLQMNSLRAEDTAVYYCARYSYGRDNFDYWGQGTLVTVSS VL: QSVLTQPPSASGTPGQRVTISCTGSTSNIGAGYDTHWYQQLPGTAPKLLIYGNSNRPSGVPDRFSGSKSGTSASLAISGLRSEDEADYYCQSYDTQLSVWVFGGGTKLTVLG equals < 20%

Data origin: patent US20150139990A1
